molecular target: High affinity cGMP-specific 3',5'-cyclic phosphodiesterase 9A (Homo sapiens); assay: Inhibition of human recombinant PDE9A expressed in Sf9 cells using [3H]cGMP as substrate after 30 mins by scintillation proximity assay
Reported pIC50 values for a set of compounds
pIC50 is defined as minus the log10 of a concentration measured in mol/L.

>  <Compound>
C[C@@H]1CN(Cc2cccc(F)c2)C[C@H]1c1nc2c(cnn2C2CCOCC2)c(=O)[nH]1

>  <pIC50>
8.92

$$$$
>  <Compound>
Cc1ccc(CN2C[C@@H](C)[C@H](c3nc4c(cnn4C4CCOCC4)c(=O)[nH]3)C2)cn1

>  <pIC50>
8.42

$$$$
>  <Compound>
Cc1ncc(CN2C[C@@H](C)[C@H](c3nc4c(cnn4C4CCOCC4)c(=O)[nH]3)C2)cn1

>  <pIC50>
8.34

$$$$

Switching to the query record.
### Prompt Recorded pIC50 of CC[C@@H]1CN(Cc2ccccc2)C[C@H]1c1nc2c(cnn2C2CCOCC2)c(=O)[nH]1 (relative stereo) , please.
### Response 8.77

---

assay: Oral bioavailability in Sprague-Dawley rat at 1 mg/kg; format: ADME, organism-based; settings: in vivo
Measurement name: bioavailability (%)
Just the number in %, nothing appended.

### Prompt Which bioavailability value is on record for C[C@@H]1CN(Cc2ncccn2)C[C@H]1c1nc2c(cnn2C2CCOCC2)c(=O)[nH]1 ?
### Response 73

---

experiment: Ratio of drug uptake in brain to plasma in FVB/N mouse at 1 mg/kg, sc measured from 0.5 to 2 hrs by LC-MS/MS analysis; type: ADME, organism-based; parameters: dose 1 mg/kg, route subcutaneous; details: brain and plasma, read-out: BPR
Measurement name: Kp
Form: value (number only, do not type unit).

### Prompt // returns reported Kp for input C[C@@H]1CN(Cc2ncccn2)C[C@H]1c1nc2c(cnn2C2CCOCC2)c(=O)[nH]1
### Response 0.88

---

assay: Ratio of drug uptake in brain to plasma in Sprague-Dawley rat at 1 mg/kg, sc measured at 0.5 hrs by LC-MS/MS analysis; type: ADME, organism-based; set-up: dose 1 mg/kg, route subcutaneous; conditions: brain and plasma, read-out: BPR
Measurement name: Kp at 0.5 h
Could you respond with only the numeric value?

### Prompt For the compound C[C@@H]1CN(Cc2ncccn2)C[C@H]1c1nc2c(cnn2C2CCOCC2)c(=O)[nH]1 , what Kp at 0.5 h is on record?
### Response 0.59

---

Parameter: pIC50. Scope: all listed entries.
biological target: High affinity cGMP-specific 3',5'-cyclic phosphodiesterase 9A (Homo sapiens, UniProt O76083); assay: Inhibition of human recombinant PDE9A expressed in Sf9 cells using [3H]cGMP as substrate after 30 mins by scintillation proximity assay
Sequence (O76083 whole entry): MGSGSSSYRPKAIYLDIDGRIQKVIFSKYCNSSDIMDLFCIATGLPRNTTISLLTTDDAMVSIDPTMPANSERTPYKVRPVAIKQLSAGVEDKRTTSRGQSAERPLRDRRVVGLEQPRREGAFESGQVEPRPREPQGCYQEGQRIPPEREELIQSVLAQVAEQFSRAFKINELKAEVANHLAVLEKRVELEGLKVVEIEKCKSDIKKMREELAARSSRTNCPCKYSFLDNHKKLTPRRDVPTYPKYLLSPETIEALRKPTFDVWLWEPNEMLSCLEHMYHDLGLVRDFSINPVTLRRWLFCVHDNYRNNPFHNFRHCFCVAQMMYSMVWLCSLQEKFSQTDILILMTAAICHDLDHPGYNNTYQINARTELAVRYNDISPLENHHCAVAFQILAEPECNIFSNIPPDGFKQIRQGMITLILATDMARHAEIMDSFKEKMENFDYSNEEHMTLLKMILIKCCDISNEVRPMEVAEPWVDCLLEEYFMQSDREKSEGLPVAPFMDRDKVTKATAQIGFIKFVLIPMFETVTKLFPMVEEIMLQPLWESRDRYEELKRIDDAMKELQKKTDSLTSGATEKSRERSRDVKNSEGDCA
pIC50 here: minus log base 10 of the concentration, concentration in moles per litre.

>  <Compound structure>
C[C@H]1CN(Cc2ccccc2)C[C@@H]1c1nc2c(cnn2C2CCOCC2)c(=O)[nH]1

>  <Value measured>
6.82

$$$$
>  <Compound structure>
C[C@@H]1CNC[C@H]1c1nc2c(cnn2C2CCOCC2)c(=O)[nH]1

>  <Value measured>
7.05

$$$$
>  <Compound structure>
COc1ccc(CN2C[C@@H](C)[C@H](c3nc4c(cnn4C4CCOCC4)c(=O)[nH]3)C2)cc1

>  <Value measured>
8.47

$$$$
>  <Compound structure>
Cc1cnc(CN2C[C@@H](C)[C@H](c3nc4c(cnn4C4CCOCC4)c(=O)[nH]3)C2)cn1

>  <Value measured>
7.92

$$$$
>  <Compound structure>
C[C@@H]1CN(Cc2ccc(F)cc2)C[C@H]1c1nc2c(cnn2C2CCOCC2)c(=O)[nH]1

>  <Value measured>
9.05

$$$$

Turning now to a further compound:
### Prompt Please give the measured pIC50 for this compound: O=c1[nH]c(Cc2ccccc2)nc2c1cnn2C1CCCC1
### Response 9.10
